Tested on: LXRa:RXRa (NR concentration 270 nM, RXRa partner concentration 90 nM)
Assay: PBM binding z-score (relative to random genomic background probes); higher = stronger binding; sequences stand for … in GC…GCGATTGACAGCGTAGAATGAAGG
MEASUREMENT_KIND: PBM binding z-score

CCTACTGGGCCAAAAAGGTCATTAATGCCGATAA    3.74
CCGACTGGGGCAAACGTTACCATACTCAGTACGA    -0.168
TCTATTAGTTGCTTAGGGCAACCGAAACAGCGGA    0.582
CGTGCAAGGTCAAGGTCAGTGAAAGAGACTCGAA    5.78
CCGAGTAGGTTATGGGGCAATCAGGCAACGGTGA    0.461
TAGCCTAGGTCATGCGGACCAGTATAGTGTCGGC    3
